Protocol Description: Clearance in rat at 4 mg/kg, iv
Type: ADME, organism-based
Assay Context: in vivo
Measured Parameter: clearance (mL/min/kg)
Kindly provide the numeric value in mL/min/kg only, without the unit symbol.

The reported value for NS(=O)(=O)c1c(S(=O)(=O)C2CNC2)ccc(-c2ccc(C3CCNCC3)cc2)c1-c1nn[nH]n1 in terms of clearance is 8.5

###

Protocol Description: Cmax in rat at 100 mg/kg, iv
Type: ADME, organism-based
Assay Context: in vivo
Measured Parameter: Cmax (µM)
Kindly provide the numeric value in µM only, without the unit symbol.

The reported value for NCCS(=O)(=O)c1ccc(-c2cccc3sc(N)nc23)c(-c2nn[nH]n2)c1S(N)(=O)=O in terms of Cmax is 569

###

Measured Target: Metallo-beta-lactamase type 2 (Bacteria, UniProt C7C422)
Sequence (C7C422 whole entry): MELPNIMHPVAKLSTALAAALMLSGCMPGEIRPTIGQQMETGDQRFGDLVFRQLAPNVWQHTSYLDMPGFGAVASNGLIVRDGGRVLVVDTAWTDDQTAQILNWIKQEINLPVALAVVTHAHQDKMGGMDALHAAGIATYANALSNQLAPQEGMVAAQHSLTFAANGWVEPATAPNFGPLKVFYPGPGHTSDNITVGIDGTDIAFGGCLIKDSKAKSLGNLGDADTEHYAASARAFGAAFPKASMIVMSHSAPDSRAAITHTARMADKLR
Protocol Description: Inhibition of Metallo-beta-lactamase NDM-1 (unknown origin)
With a cut-off of 4 nM, any IC50 strictly below it is called T; any IC50 meeting it or above is called F.

Cc1ccc(-c2cccc(S(N)(=O)=O)c2-c2nnn[nH]2)cc1 : T

Could you now consider this next molecule?
Exercise: # TODO verify IC50 < 4 nM strictly for this molecule: NS(=O)(=O)c1c(CC2CCNCC2)ccc(-c2ccc(C3CCNCC3)cc2)c1-c1nn[nH]n1
Key: F

###

Protocol Description: Clearance in rhesus monkey at 1 mg/kg, iv
Format: ADME, organism-based, Macaca mulatta
Assay Context: in vivo
Measured Parameter: clearance (mL/min/kg)
Kindly provide the numeric value in mL/min/kg only, without the unit symbol.

The reported value for NCCS(=O)(=O)c1ccc(-c2cccc3sc(N)nc23)c(-c2nn[nH]n2)c1S(N)(=O)=O in terms of clearance is 3.6

###

Protocol Description: Cmax in rat at 1 mg/kg, iv
Format: ADME, organism-based
Assay Context: in vivo
Documented Cmax across a set of molecules
Kindly provide the numeric value in µM only, without the unit symbol.

NCCS(=O)(=O)c1ccc(-c2cccc3sc(N)nc23)c(-c2nn[nH]n2)c1S(N)(=O)=O : 5.8

The reported value for NS(=O)(=O)c1c(S(=O)(=O)C2CCNCC2)ccc(-c2ccc(C3CCNCC3)cc2)c1-c1nnn[nH]1 in terms of Cmax is 15.8

###

Tested on: Pseudomonas aeruginosa
Protocol Description: Antibacterial activity against mutant isogenic efflux/IMP-1 expressing Pseudomonas aeruginosa MB9799 assessed as inhibition of bacterial growth in presence of IMI by absorbance based assay
Type: functional
Documented MITC95 across a set of compounds
Kindly provide the numeric value in µM only, without the unit symbol.

NS(=O)(=O)c1c(S(=O)(=O)C2CNC2)ccc(-c2ccc(C3CCNCC3)cc2)c1-c1nn[nH]n1 : 0.78
NS(=O)(=O)c1c(SC2CCNCC2)ccc(-c2ccc(C3CCNCC3)cc2)c1-c1nnn[nH]1 : 0.78
NS(=O)(=O)c1c(C(F)(F)F)ccc(-c2ccc(C3CCNCC3)cc2)c1-c1nn[nH]n1 : 0.78

The reported value for Nc1nc2c(-c3ccc(S(=O)(=O)C4CCNCC4)c(S(N)(=O)=O)c3-c3nn[nH]n3)cccc2s1 in terms of MITC95 is 1.56

The reported value for NS(=O)(=O)c1c(CC2CCNCC2)ccc(-c2ccc(C3CCNCC3)cc2)c1-c1nn[nH]n1 in terms of MITC95 is 0.8

The reported value for NCCS(=O)(=O)c1ccc(-c2ccc(C3CCNCC3)cc2)c(-c2nn[nH]n2)c1S(N)(=O)=O in terms of MITC95 is 0.78

The reported value for NS(=O)(=O)c1c([S+]([O-])C2CCNCC2)ccc(-c2ccc(C3CCNCC3)cc2)c1-c1nnn[nH]1 (stereo not drawn) in terms of MITC95 is 1.56

The reported value for NS(=O)(=O)c1cccc(-c2ccc(C3CCNCC3)cc2)c1-c1nn[nH]n1 in terms of MITC95 is 1.56
